- systemTested: human IL-6 (human, UniProt P05231 30-212)
- assayRemarks: cell-based or functional assay
measurementType: EC50, inhibition of IL-6 induced B9 cell proliferation (ng/mL)

binder: 9C8 chimeric mAb (antibody, V domains shown, Rabbit/human chimeric IgG (human IgG1, kappa); HEK293; also called 9C8 clone) VH: QSVEESGGRLVTPGTPLTLTCTVSGIDLSSYDMSWVRQAPGKGLEWIGYIYTDSSTYYANWAKGRFTISKTSTTVDLKMTSLTTEDTATYFCAKGSTDYAFDTRLDLWGPGTLVTVS VL: AYDMTQTPASVEVAMGGTVTIKCQASQSISNELSWYQQKPGQPPKLLIYRTSTLASGVSSRFKGSGSGTEYTLTISGVECADAATYYCQQGYNSNDVDNVFGGGTKVVVVR
assayValue: 0.4
--
binder: 28D2 humanized scFv (mammalian expressed) (scFv, also called 28D2 scFv) scFv: DIQLTQSPSFLSASVGDRVTITCQASEDLFSSLAWYQQKPGKAPKLLIYSASTLASGVPSRFSGSGSGTDFTLTISSLQPEDFATYYCLGLYYYLTPDPIYGFGGGTKVEIKGGGGSGGGGSGGGGSGGGGSEVQLVESGGGLVQPGGSLRLSCTVSGLSLSKNAIAWVRQAPGKGLEWVGIIYAGGATTYASWAKGRFTISRDNSKNTLYLQMNSLRAEDTAVYYCAREYAGDSYYTGYTQLDLWGQGTLVTVSSGPPPPHHHHHH
assayValue: 0.043
--
binder: 13A8 humanized scFv (mammalian expressed) (scFv, also called humanized scFv 13A8; mammalian 13A8 scFv) scFv: DIQLTQSPSFLSASVGDRVTITCQASQSISNELSWYQQKPGKAPKLLIYRASTLTSGVPSRFSGSGSGTEFTLTISSLQPEDFATYYCQQGYNSNDVDNVFGGGTKVEIKGGGGSGGGGSGGGGSGGGGSEVQLVESGGGLVQPGGSLRLSCTVSGIDLSSYDMSWVRQAPGKGLEWVGYIYTDSSTWYANWAKGRFTISRDNSKNTLYLQMNSLRAEDTAVYYCARGSTDYAFDTRLDLWGQGTLVTVSSGPPPPHHHHHH
assayValue: 0.064
